assay-explanation: Vapor pressure of the perfluorochemical
test-context: 38° C.
test-readout: Vapor pressure

Here are 2 compounds together with their reported answers.
FC(F)(F)OC(OC(F)(F)C(F)(F)C(F)(F)C(F)(F)C(F)(F)F)(C(F)(F)F)C(F)(F)F :: 28-29 mmHg
FC(F)(F)N(C(F)(F)F)C(F)(C(F)(C(F)(F)F)C(F)(F)F)C(F)(C(F)(F)F)C(F)(F)F :: 21-22 mmHg

FC(F)(F)N(C(F)(F)F)C(F)(F)C(F)(C(F)(F)F)C(F)(F)C(F)(C(F)(F)F)C(F)(F)F (stereo not drawn) yielded Vapor pressure of 18-19 mmHg

---

Catalogue of Vapor pressure readings, one per entry.
assay-explanation: Vapor pressure of the perfluorochemical
test-context: 38° C.

FC(F)(F)C(F)(F)C(F)(F)C(F)(F)OC(F)(F)C(F)(F)C(F)(F)C(F)(F)C(F)(F)C(F)(F)C(F)(F)F :: 8-9 mmHg

FC(F)(F)N(C(F)(F)C(F)(F)F)C(C(F)(F)F)(C(F)(F)F)C(F)(F)C(F)(F)C(F)(F)F yielded Vapor pressure of 20-21 mmHg

FC(F)(F)OC(F)(F)C(F)(C(F)(F)F)C(F)(OC(F)(F)F)C(F)(F)C(F)(F)F (stereo not shown) yielded Vapor pressure of 48-50 mmHg

FC(F)(F)OC(F)(C(F)(F)F)C(F)(C(F)(C(F)(F)F)C(F)(F)F)C(F)(C(F)(F)F)C(F)(F)F (stereo not shown) yielded Vapor pressure of 18-19 mmHg

FC(F)(F)C(F)(F)C(F)(F)C(OC(F)(F)C(F)(C(F)(F)F)C(F)(F)F)(C(F)(F)F)C(F)(F)F yielded Vapor pressure of 15-16 mmHg

FC(F)(F)C(F)(F)OC(F)(C(F)(C(F)(F)F)C(F)(F)F)C(F)(C(F)(F)F)C(F)(F)F yielded Vapor pressure of 30-31 mmHg

FC(F)(F)C(F)(F)C(F)(F)OC(F)(C(F)(F)C(F)(F)F)C(F)(C(F)(F)F)C(F)(F)F (stereo not shown) yielded Vapor pressure of 29 mmHg

FC(F)(F)C(F)(F)OC(F)(C(F)(F)F)C(F)(C(F)(C(F)(F)F)C(F)(F)F)C(F)(C(F)(F)F)C(F)(F)F (stereo not shown) yielded Vapor pressure of 10-11 mmHg

FC(F)(F)N(C(F)(F)F)C(F)(F)C(F)(C(F)(F)F)C(F)(F)C(F)(F)C(F)(F)F (stereo not shown) yielded Vapor pressure of 37-38 mmHg

FC(F)(F)C(F)(C(F)(F)F)C(F)(F)OC(F)(C(F)(C(F)(F)F)C(F)(F)F)C(F)(C(F)(F)F)C(F)(F)F yielded Vapor pressure of 8-9 mmHg

FC(F)(F)C(F)(F)C(F)(F)C(F)(F)C(F)(F)C(F)(F)C(F)(F)OC(F)(C(F)(F)F)C(F)(F)F yielded Vapor pressure of 14-15 mmHg

FC(F)(F)C(F)(F)C(F)(F)C(F)(F)C(F)(F)C(F)(F)C(F)(F)OC(F)(F)C(F)(C(F)(F)F)C(F)(F)F yielded Vapor pressure of 8-9 mmHg

FC(F)(F)N(C(F)(F)C(F)(F)C(F)(F)F)C(C(F)(F)F)(C(F)(F)F)C(F)(F)C(F)(F)C(F)(F)F yielded Vapor pressure of 9-10 mmHg
